# Test system: HL-60(TB) leukemia
# Assay protocol: NCI tumour cell line growth inhibition, 48 h
Measured endpoint: TGI

Example results:
Compound	TGI
Cc1[nH]c(-c2ccccc2)c(O)c1C(=O)OC12CC3CC(CC(C3)C1)C2	> 100 µM
COC1CC(C)(NC(C)=O)C2OC(c3ccccc3)OCC2O1 (stereo not given)	> 100 µM
S=C1C(=Nc2ccccc2)N(C2CCCCC2)C(=NC2CCCCC2)N1c1ccccc1	> 100 µM
OCCCc1n(Cc2ccc3ccccc3c2)c2ccccc2[n+]1Cc1ccc2ccccc2c1	2.36 µM

Now, please, on to the next compound.
**Q:** Return reported TGI; argument: COC(=O)C1CC(C(=O)OC)c2nc3cc([N+](=O)[O-])ccc3nc21 (stereo not given)
**A:** > 86.8 µM
